# Test system: Rats Washed Platelet
# assay.remarks: in vitro rat washed platelet aggregation test (collagen-induced)
# Type: cell-based, rat (Sprague-Dowley)
# condition.context: 0.05 h, inducer collagen 4 μg/ml, 37° C., 3 minutes after inducer, read-out: 50% Inhibitory Concentration (IC50), Inhibition of Aggregation for Rats Washed Platelet
endpoint: pIC50
pIC50 (log units): -log10 of the concentration in mol/L.

# compound, experimental.target, measured
rows = [
    ("CC1(C)[C@H]2C[C@H](NS(=O)(=O)c3ccccc3)[C@@H](C/C=C\\CCCc3nn[nH]n3)[C@@H]1C2 [Ida-b]", "Rats Washed Platelet", 8.52),
    ("O=S(=O)(N[C@H]1[C@H]2CC[C@H](C2)[C@@H]1C/C=C\\CCCc1nnn[nH]1)c1ccccc1 (relative stereo) [Iaa-b]", "Rats Washed Platelet", 8.52),
]

Query block: Rats Washed Platelet / pIC50 / CC1(C)[C@H]2C[C@H](C/C=C\CCCc3nnn[nH]3)[C@@H](NS(=O)(=O)c3ccccc3)[C@@H]1C2 [Iea-b] : value?
Result block: 7.70

Query block: Similarly, CC1(C)[C@H]2C[C@H](C/C=C\CCCc3nnn[nH]3)[C@@H](NS(=O)(=O)c3ccc(-c4ccccc4)cc3)[C@@H]1C2 [Ieh-b] ?
Result block: 8.00

Query block: Similarly, O=S(=O)(N[C@H]1[C@H]2CC[C@H](C2)[C@@H]1C/C=C\CCCc1nnn[nH]1)c1ccc(O)cc1 (relative stereo) [Iad-b] ?
Result block: 8.70

Query block: Similarly, Cc1ccc(S(=O)(=O)N[C@@H]2[C@@H](C/C=C\CCCc3nnn[nH]3)C[C@H]3C[C@@H]2C3(C)C)cc1 [Ieb-b] ?
Result block: 8.40

Query block: Similarly, CC1(C)[C@H]2C[C@H](C/C=C\CCCc3nnn[nH]3)[C@@H](NS(=O)(=O)c3cccc(Cl)c3)[C@@H]1C2 [Iek-b] ?
Result block: 8.30

Query block: Similarly, O=S(=O)(N[C@H]1[C@H](C/C=C\CCCc2nnn[nH]2)[C@H]2CC[C@@H]1O2)c1ccccc1 (relative stereo) [Ica-b] ?
Result block: 8.00

Query block: Similarly, COc1ccc(S(=O)(=O)N[C@H]2[C@H]3CC[C@H](C3)[C@@H]2C/C=C\CCCc2nnn[nH]2)cc1 (relative stereo) [Iae-b] ?
Result block: 8.70

Query block: Similarly, CC1(C)[C@H]2C[C@H](C/C=C\CCCc3nnn[nH]3)[C@@H](NS(=O)(=O)c3ccccc3Cl)[C@@H]1C2 [Iel-b] ?
Result block: 7.70

Query block: Similarly, Cc1ccc(S(=O)(=O)N[C@H]2[C@H]3CC[C@H](C3)[C@@H]2C/C=C\CCCc2nn[nH]n2)cc1 (relative stereo) [Iab-b] ?
Result block: 8.70

Query block: Similarly, O=S(=O)(N[C@@H]1[C@@H](C/C=C\CCCc2nnn[nH]2)[C@H]2CC[C@@H]1O2)c1ccccc1 (relative stereo) [Iba-b] ?
Result block: 7.70

Query block: Similarly, O=S(=O)(N[C@H]1[C@H]2CC[C@H](C2)[C@@H]1C/C=C\CCCc1nn[nH]n1)c1ccc(Br)cc1 (relative stereo) [Iac-b] ?
Result block: 8.70

Query block: Similarly, O=S(=O)(N[C@H]1[C@H]2CC[C@H](C2)[C@@H]1C/C=C\CCCc1nnn[nH]1)c1ccccc1 [(+)-Iaa-b] ?
Result block: 8.70
